Source of measurements: patent US7199147B2

Counter-ions that a name gives are not always drawn.
The entries below are paired with their reported melting point.

Solved entries:
>>> print(df.to_string())
                                   molecule  recorded_endpoint       observed_result
0  COc1c(OS(C)(=O)=O)ccc2[nH]ncc12 (as salt: methanesulfonate)      melting point         130 to 131 °C
1  O=S(=O)(c1ccccc1)N1CCC(Nc2ccc3[nH]ncc3c2)CC1      melting point         132 to 136 °C
2  O=C1c2ccccc2C(=O)N1[C@H]1CCC[C@H](Oc2ccc3[nH]ncc3c2)C1 (relative stereo)      melting point         197 to 198 °C
3  CSc1c(O[C@H]2CC[C@@H](N3C(=O)c4ccccc4C3=O)CC2)ccc2[nH]ncc12      melting point         211 to 212 °C
4             CC(C)CCC(=O)Nc1ccc2[nH]ncc2c1      melting point  215 to 216 °C (dec.)

Prompt line: Find the recorded melting point belonging to c1cc2[nH]ncc2cc1OC1CCOCC1 [Example 365] and report it.
Response line: 151 to 153 °C

Prompt line: What do you have for Cc1c(OC2CCN(C3CCCC3)CC2)ccc2[nH]ncc12 ?
Response line: 140 to 143 °C

Prompt line: O=C(O)CCC(=O)Nc1ccc2[nH]ncc2c1 ?
Response line: 218 to 220 °C (dec.)

Prompt line: What do we get for O=C(CCOCc1ccccc1)Nc1ccc2[nH]ncc2c1 ?
Response line: 167 to 169 °C

Prompt line: Again, but for CCCN1C2CCC1CC(Nc1ccc3[nH]ncc3c1)C2.Cl.Cl (centres unmarked)
Response line: 198 to 203 °C

Prompt line: Proceed to CCC(=O)N[C@H]1CC[C@@H](Oc2ccc3[nH]ncc3c2SC)CC1
Response line: 155 to 156 °C

Prompt line: And for CC(C)COc1ccc2[nH]ncc2c1 ?
Response line: 151 to 153 °C

Prompt line: Same for c1cc2[nH]ncc2cc1OC1CCCC1
Response line: 141 to 142 °C

Prompt line: Param item: Cn1ncc2cc(NC3CCNCC3)ccc21
Response line: 111 to 113 °C

Prompt line: Another molecule: COc1ccc2[nH]ncc2c1C
Response line: 148 to 149 °C

Prompt line: Ok, now Cc1c(O[C@H]2CC[C@@H](NC3CCCC3)CC2)ccc2[nH]ncc12
Response line: 153 to 155 °C

----------
recorded endpoint: melting point

Prompt line: Which melting point value belongs to Cc1c(O[C@@H]2CCC[C@H](NC(=O)C3CCCC3)C2)ccc2[nH]ncc12 (relative stereo) ?
Response line: 242 to 244 °C (dec.)

Prompt line: What about this molecule? CN(C)C(=O)c1ccccc1Nc1ccc2[nH]ncc2c1
Response line: 234 to 235 °C (dec.)

Prompt line: Same again, this time with N[C@H]1CCC[C@@H](Oc2cccc3[nH]ncc23)C1 (relative stereo)
Response line: 166 to 168 °C

Prompt line: Also, CS(=O)(=O)N1CCC(Nc2ccc3[nH]ncc3c2)CC1 please.
Response line: 219 to 220 °C (dec.)

----------
recorded endpoint: melting point

Known results for molecules:
>>> df
                                   molecule  observed_result
0  c1cc2[nH]ncc2cc1OC1CCCN(C2CCCC2)CC1 (stereo not shown)    138 to 140 °C
1              Cc1n[nH]c2ccc(NC3CCNCC3)cc12    175 to 177 °C
2   Cc1c(O[C@H]2CC[C@H](N)CC2)ccc2[nH]ncc12    150 to 152 °C

Prompt line: Would you mind telling me what melting point value was observed for CN(CCCC(=O)Nc1ccc2[nH]ncc2c1)Cc1ccccc1 ?
Response line: 115 to 117 °C

Prompt line: Okay, and c1cc(OC2CCNCC2)c2cn[nH]c2c1 ?
Response line: 162 to 165 °C

----------
Reported melting point values are given for each entry in this list.

>>> print(df.to_string())
                               compound  observed_result
0  CN(CC(=O)Nc1ccc2[nH]ncc2c1)Cc1ccccc1    159 to 160 °C

Prompt line: Entry under review: CC(C)N1CCC(Oc2ccc3[nH]ncc3c2)CC1 . Reported melting point?
Response line: 125 to 126 °C

Prompt line: Next compound up: Cc1c(OC2CCN(C(C)C)CC2)ccc2[nH]ncc12
Response line: 134 to 136 °C

Prompt line: Further, for c1cc2cn[nH]c2cc1NC1CCNCC1 ?
Response line: 196 to 197 °C (dec.)

----------
Below, each entry is listed with its recorded melting point.

Some solved entries appear below for comparison.
>>> print(df.to_string())
                                 molecule  observed_result
0               CC(C)CCCOc1ccc2[nH]ncc2c1    124 to 126 °C
1  CCS(=O)(=O)N1CCC(Nc2ccc3[nH]ncc3c2)CC1    182 to 183 °C
2   N[C@H]1CC[C@@H](Oc2ccc3[nH]ncc3c2)CC1    144 to 146 °C

Prompt line: Quick check: melting point of O=S(=O)(Nc1ccc2[nH]ncc2c1)C1CCNCC1 ?
Response line: 120 to 123 °C

Prompt line: Also c1ccc(CN2CCN(Cc3ccc4[nH]ncc4c3)CC2)cc1 , if possible.
Response line: 147 to 149 °C

Prompt line: // same read-out, input: Cc1c(OC2CCCN(C3CCCC3)CC2)ccc2[nH]ncc12 (stereo not shown)
Response line: 126 to 131 °C

Prompt line: Another molecule to look at: N[C@H]1CCC[C@H](Oc2ccc3[nH]ncc3c2Cl)C1 (relative stereo)
Response line: 142 to 144 °C

Prompt line: Now this one: CNc1ccc2[nH]ncc2c1
Response line: 144 to 146 °C

Prompt line: Now consider CN(c1ccc2[nH]ncc2c1)C1CCNCC1 .
Response line: 175 to 177 °C

Prompt line: Now give it for CCOC(=O)N1C2CCC1CC(Nc1ccc3[nH]ncc3c1)C2 (stereo not shown) too.
Response line: 158 to 159 °C

Prompt line: Further, for Cn1cc2cc(NC3CCN(Cc4ccccc4)CC3)ccc2n1 ?
Response line: 108 to 110 °C

Prompt line: Let us now turn to COCCC(=O)Nc1ccc2[nH]ncc2c1
Response line: 173 to 174 °C

Prompt line: Next: CCN[C@H]1CCC[C@H](Oc2ccc3[nH]ncc3c2)C1 (relative stereo)
Response line: 116 to 118 °C

Prompt line: Same question for c1ccc(CN2CCC(Nc3ccc4oncc4c3)CC2)cc1 please.
Response line: 89 to 90 °C

Prompt line: Field entry: CN(C)CCC(=O)Nc1ccc2[nH]ncc2c1
Response line: 152 to 153 °C

Prompt line: What do we get for c1cc2[nH]ncc2cc1NC1CC2CCC(C1)N2 (stereo not shown) ?
Response line: 236 to 238 °C
